Molecular target: recombinant human MAO-A (monoamine oxidase-A) (Homo sapiens, UniProt P21397)
Construct: purchased Sigma-Aldrich
Sequence (P21397 whole entry): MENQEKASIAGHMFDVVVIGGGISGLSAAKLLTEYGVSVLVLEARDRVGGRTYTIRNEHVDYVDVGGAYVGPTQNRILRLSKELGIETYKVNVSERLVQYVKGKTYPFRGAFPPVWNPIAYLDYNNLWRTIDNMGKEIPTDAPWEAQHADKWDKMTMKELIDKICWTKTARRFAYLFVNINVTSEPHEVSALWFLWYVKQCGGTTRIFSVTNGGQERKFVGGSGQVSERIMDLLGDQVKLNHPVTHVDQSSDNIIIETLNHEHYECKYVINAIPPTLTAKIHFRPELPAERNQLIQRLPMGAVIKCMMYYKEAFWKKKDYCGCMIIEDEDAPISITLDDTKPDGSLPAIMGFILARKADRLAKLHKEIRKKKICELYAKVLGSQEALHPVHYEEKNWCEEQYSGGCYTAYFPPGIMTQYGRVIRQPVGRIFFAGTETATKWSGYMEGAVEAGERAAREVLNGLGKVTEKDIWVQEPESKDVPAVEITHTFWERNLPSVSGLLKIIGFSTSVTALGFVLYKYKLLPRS
Assay: Activity on recombinant human MAO-A, method similar to VAP-1 assay, 0.5 mM tyramine substrate
Type: biochemical
Settings: read-out: Inhibitory Activity (IC50, nM) MAO-A
Structures can show the parent of a compound that is named as a salt.
assay_endpoint: IC50

NCC(Cn1nc2ccc(Br)cn2c1=O)=C(F)F [Example 46, trifluoroacetate] ... > 100000 nM
NC/C(=C\F)Cn1nc2cc(-c3ccc(-c4cnon4)cc3)ccn2c1=O [Example 27, hydrochloride] ... 1450 nM
NCC(Cn1nc2cc(-c3ccc4c(c3)OCO4)ccn2c1=O)=C(F)F [Example 52, trifluoroacetate] ... > 100000 nM
NCC(Cn1nc2cc(C#Cc3ccc(N4CCOCC4)nc3)ccn2c1=O)=C(F)F [Example 58, trifluoroacetate] ... > 100000 nM
NC/C(=C\F)Cn1nc2ccc(-c3ccc4c(c3)OCO4)cn2c1=O [Example 12, hydrochloride] ... 14000 nM

Provide one value: measured IC50 of CN(C)c1ccc(-c2ccn3c(=O)n(C/C(=C/F)CN)nc3c2)cn1 [Example 32, hydrochloride]
> 100000 nM

Provide one value: measured IC50 of NC/C(=C\F)Cn1nc2cc(-c3ccc4c(c3)OCO4)ccn2c1=O [Example 36, hydrochloride]
66000 nM

Provide one value: measured IC50 of NCC(Cn1nc2cccc(Br)n2c1=O)=C(F)F [Example 45, trifluoroacetate]
> 100000 nM

* * *

Target: recombinant human VAP-1 (Homo sapiens)
Construct: purchased R&D systems
Sequence (Q16853 1-763): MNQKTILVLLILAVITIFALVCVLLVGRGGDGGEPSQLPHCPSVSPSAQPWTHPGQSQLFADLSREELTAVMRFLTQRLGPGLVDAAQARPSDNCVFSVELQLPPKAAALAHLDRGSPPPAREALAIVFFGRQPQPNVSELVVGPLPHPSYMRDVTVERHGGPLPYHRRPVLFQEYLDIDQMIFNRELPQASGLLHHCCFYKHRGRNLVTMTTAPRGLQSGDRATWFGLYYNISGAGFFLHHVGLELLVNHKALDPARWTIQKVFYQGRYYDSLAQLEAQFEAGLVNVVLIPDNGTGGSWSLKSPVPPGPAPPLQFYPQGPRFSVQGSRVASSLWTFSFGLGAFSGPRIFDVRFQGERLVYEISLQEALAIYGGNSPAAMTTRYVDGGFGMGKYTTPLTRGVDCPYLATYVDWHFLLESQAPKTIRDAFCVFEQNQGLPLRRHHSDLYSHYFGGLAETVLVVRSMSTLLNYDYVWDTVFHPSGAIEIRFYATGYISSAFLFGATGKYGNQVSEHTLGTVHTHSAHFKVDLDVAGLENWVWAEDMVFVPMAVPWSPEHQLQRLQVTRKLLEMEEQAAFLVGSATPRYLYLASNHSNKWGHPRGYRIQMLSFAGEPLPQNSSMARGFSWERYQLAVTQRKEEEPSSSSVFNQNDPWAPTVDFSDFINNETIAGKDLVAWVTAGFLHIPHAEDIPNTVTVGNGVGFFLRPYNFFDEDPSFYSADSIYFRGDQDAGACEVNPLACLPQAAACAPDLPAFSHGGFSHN
Assay: Activity on recombinant human VAP-1, HRP-coupled Amplex Red hydrogen peroxide assay, benzylamine substrate
Assay type: biochemical
Conditions: 30 min incubation at 37° C., 1 mM benzylamine, read-out: Inhibitory Activity (IC50, nM) human VAP-1
Where a name gives a salt, the structure may show the parent alone.
assay_endpoint: IC50 (nM)

CN(C)Cc1ccccc1-c1ccn2c(=O)n(C/C(=C/F)CN)nc2c1 [Example 23, hydrochloride] ... 7

(1) NC/C(=C\F)Cn1nc2ccc(-c3ccc(-c4ccon4)cc3)cn2c1=O [Example 7, hydrochloride]
(2) NC/C(=C\F)Cn1nc2cc(-c3ccc(N4CCOCC4)nc3)ccn2c1=O [Example 33, hydrochloride]
Hi, I'm comparing 1 with 2 and wondering which one has the bigger number for IC50. Any idea? Kindly give the label for the entry you pick.
1

(a) CC(=O)Nc1ccc(-c2ccc3nn(C/C(=C/F)CN)c(=O)n3c2)cc1 [Example 2, trifluoroacetate]
(b) NCC(Cn1nc2cc(C#Cc3cnc4c(c3)NCCO4)ccn2c1=O)=C(F)F [Example 60, ditrifluoroacetate]
(c) NC/C(=C\F)Cn1nc2cccc(-c3ccc4nonc4c3)n2c1=O [Example 21, trifluoroacetate]
Order each entry by recorded IC50, climbing from the minimum. Form entry: labels listed in requested order.
b, a, c
